Would you kindly list zone of inhibition at 50 µg/mL for each of these compounds?
- Test system: Fusarium oxysporum
- assay: Antimicrobial activity against Fusarium oxysporum MTCC 284 at 50 ug/ml after 48 hrs by disc diffusion method
- Type: functional
- measurement-context: MTCC 284, 48 h, read-out: DIZ
Give bare numbers, in mm.

Inquiry: Please look at Cc1c(C(=O)NN)c(-c2ccccc2)nn1-c1ccccc1 and tell me its recorded zone of inhibition at 50 µg/mL on Fusarium oxysporum.
Reply text: 3

For each of the compounds below, note its zone of inhibition at 50 µg/mL.
1. COc1cc(-c2nn(-c3ccccc3)c(C)c2-c2nnc(-c3ccccc3)o2)cc(OC)c1OC
2. COc1ccc(-c2nn(-c3ccccc3)c(C)c2-c2nnc(-c3ccccc3)o2)cc1
3. Cc1c(-c2nnc(-c3ccccc3)o2)c(-c2ccc([N+](=O)[O-])cc2)nn1-c1ccccc1
4. COc1ccc(-c2nn(-c3ccccc3)c(C)c2-c2nnc(-c3ccccc3)o2)cc1OC
5. Cc1c(-c2nnc(-c3ccc([N+](=O)[O-])cc3)o2)c(-c2ccccc2)nn1-c1ccccc1
6. Cc1c(-c2nnc(-c3ccc(Cl)cc3)o2)c(-c2ccccc2)nn1-c1ccccc1

Reply text:
1. 8
2. 4
3. 8
4. 15
5. 6
6. 4

Give zone of inhibition at 50 µg/mL for all compounds that follow.
1. Cc1c(C(=O)NNC(=O)c2ccccc2)c(-c2ccccc2)nn1-c1ccccc1
2. COc1cc(-c2nnc(-c3c(-c4cc(OC)c(OC)c(OC)c4)nn(-c4ccccc4)c3C)o2)cc(OC)c1OC

Reply text:
1. 8
2. 14
